# method: p53 small molecule agonists, cell-based qHTS assay with human liver microsomes: qHTS cell viability counter screen (AID 1963579); also: nearly all actives have a fitted effect of over 45% in size
# testContext: p53RE-bla HCT-116 viability, ATP luminescence, 16 h, HLM; series mostly up to 66 µM
Results filed as inconclusive are left out. Calls of active or inactive are those of the source. Calls follow the shape of the full dose curve.
quantity: activity change, negative = cytotoxicity

Take a look at these entries with their results.
> print(dat)
                                   compound  measuredresult
1                             Cc1cccc(C)c1C        inactive
2                   CCCCCCCCCCCCc1ccc(O)cc1        inactive
3  C#CCOC(=O)[C@@H](C)Oc1ccc(Oc2ncc(Cl)cc2F)cc1        inactive
4                 CCCCCCCC[Si](OCC)(OCC)OCC        inactive

// sample COc1ccc(C(=O)c2ccc(OC)cc2O)c(O)c1 , its activity change, negative = cytotoxicity was inactive

// sample COc1ccc(CCC(=O)c2c(O)cc(O[C@@H]3O[C@H](CO)[C@@H](O)[C@H](O)[C@H]3O[C@@H]3O[C@@H](C)[C@H](O)[C@@H](O)[C@H]3O)cc2O)cc1O , its activity change, negative = cytotoxicity was inactive

// sample CC[N+](C)(CC)CCOC(=O)C(O)(c1ccccc1)C1CCCCC1 (centres undefined) , its activity change, negative = cytotoxicity was inactive

// sample CC(C)(Sc1cc(C(C)(C)C)c(O)c(C(C)(C)C)c1)Sc1cc(C(C)(C)C)c(O)c(C(C)(C)C)c1 , its activity change, negative = cytotoxicity was inactive

// sample COc1ccccc1OCC(O)CN1CCN(CC(=O)Nc2c(C)cccc2C)CC1 (centres undefined) , its activity change, negative = cytotoxicity was inactive

// sample CCC(C)CCCC(C)(C)O (centres undefined) , its activity change, negative = cytotoxicity was inactive
